Test system: A498 renal
assayNotes: NCI tumour cell line growth inhibition, 48 h
Task for the reader: assign each of the following compounds its reported TGI.

Query :: Look up TGI for this compound: CC[C@@H]1C[C@@H]2CN3CCc4c([nH]c5ccc(OC)cc45)C(COC(=O)c4ccc(OC)c(OC)c4)(C2)C13
Result :: 61.4 µM

Query :: Fill in the blank: the reported TGI of O=C1/C(=C/c2cccc([N+](=O)[O-])c2)COc2ccc(O)c(O)c21 is ____.
Result :: 3.26 µM

Query :: Reported TGI for Cc1ccc(S(=O)(=O)N/N=C(\CCN2CCCC2)CC(c2ccccc2)c2c(O)c3ccccc3oc2=O)cc1 (stereo not drawn) : what is it?
Result :: > 100 µM

Query :: Request the reported TGI associated with CCN(CC)C(=S)SS(=O)(=O)c1ccccc1C(=O)O
Result :: > 100 µM

Query :: Reported TGI, compound CCCc1c2c([nH]c(=O)c1C)C(=O)c1[nH]c(=O)c(C)c(CCC)c1C2=O : ____
Result :: > 100 µM

Query :: Given C=C[C@@H]1OC(=O)O[C@H]1CO , state its recorded TGI.
Result :: > 100 µM

Query :: Which measured TGI value corresponds to Oc1ccc(C(c2ccccc2)(c2ccccc2)c2ccccc2)cc1 ?
Result :: 35.1 µM

Query :: Item under review: Cc1ccc(NC(c2ccccc2)c2ccc3cccnc3c2O)cc1 (stereo not drawn) . Reported TGI?
Result :: 54.8 µM

Query :: What does the record list as TGI for OC1(c2ccccc2)CC2CCC(C1)N2CCc1ccccc1 (stereo not drawn) ?
Result :: 56.4 µM

Query :: Name the reported TGI value associated with the compound COc1ccc(-c2ccc(C3CC(c4ccc(O)cc4)=NN3)o2)c([N+](=O)[O-])c1 (stereo not drawn)
Result :: > 100 µM

Query :: I am curious: what TGI value has been reported for CC(C)C(C(=O)O)N(CC1(O)OCC(O)C(O)C1O)N=O (stereo not drawn) ?
Result :: > 100 µM

Query :: Which value of TGI has been reported for Cc1[nH]c2ncn3nc(C(Cl)(Cl)Cl)nc3c2c1Cc1ccccc1 in the records?
Result :: > 100 µM

Query :: Please look up its TGI: COc1ccc(C(=O)Cn2c(C(=O)c3ccc(OC)cc3)nc3ccccc32)cc1
Result :: > 100 µM

Query :: Give the measured TGI of Brc1cccc(/C=C/CN2CCN(CCOC(c3ccccc3)c3ccccc3)CC2)c1 .
Result :: 32 µM

Query :: Need TGI, item Cc1ccc(-c2c(C#N)c(-c3ccc(Cl)cc3)c(C#N)c(=O)n2NS(=O)(=O)c2ccccc2)cc1
Result :: > 100 µM

Query :: What measured TGI goes with C[Si](C)(C)C#CCO[Si](C)(C)C ?
Result :: > 100 µM

Query :: Which TGI is reported for this compound? COc1ccc(OCC(=O)O)c2c1CCC(C(C)C)C2=O (stereo not drawn)
Result :: > 100 µM

Query :: State the recorded TGI for this entry: C/C(=N\NC(=S)N1CCCCCC1)c1nccnc1C
Result :: 12.9 µM

====

Tested on: SK-MEL-5 melanoma
assayNotes: NCI tumour cell line growth inhibition, 48 h
measure: TGI (µM)
All answers are understood in µM, so give the number only.

Query :: Value lookup for TGI; key = CCCCCC(CN1CCOCC1)C(=O)/C=C/c1ccccc1 (stereo unspecified)
Result :: 3.42

Query :: What value of measured TGI is listed for CNc1ccccc1C(=O)N/N=C/C=C/c1ccccc1 ?
Result :: 31.3

Query :: Item under review: CNC(=S)/C(=N\Nc1nc[nH]c1C(N)=O)C(N)=S . Reported TGI?
Result :: 81.3

Query :: // TGI lookup, key: Cn1c(C(N)=O)cc2c1-c1nc(Nc3ccccc3)ncc1CCC2
Result :: 25.8

Query :: I am curious: what TGI value has been reported for O=c1c2ccccc2nc2n1NC(c1c(Cl)cccc1Cl)N2c1cccc(Cl)c1 (stereo unspecified) ?
Result :: 65.5

====

Tested on: MALME-3M melanoma
assayNotes: NCI tumour cell line growth inhibition, 48 h
Please respond with reported TGI for every item in the list.
Kindly answer with a numeric value in µM, unit omitted.

Query :: Given the compound O=C(CCN1CCN(c2cccc(Cl)c2)CC1)N1CCc2c([nH]c3ccccc23)C1c1cccnc1 (stereo not given) , what is its reported TGI?
Result :: 36.8

Query :: Fill in: TGI of O=C(Nc1ccc(S(=O)(=O)Nc2nccs2)cc1)c1cccnc1Nc1cccc(Cl)c1 is ___
Result :: 48.1

Query :: Dear colleague, I am looking for the recorded TGI of the following compound: Oc1ccc2ccccc2c1C=NCCCN=Cc1c(O)ccc2ccccc12
Result :: 29.7

Query :: Reported TGI, compound CNc1ncnc(Sc2nc(N)nc3nc[nH]c23)c1[N+](=O)[O-] : ____
Result :: 18.9

Query :: I'd like to know its TGI. The compound in question is CCCCCCCCCOC(=O)c1cnc(Cl)cn1
Result :: 39.4

====

Tested on: LOX IMVI melanoma
assayNotes: NCI tumour cell line growth inhibition, 48 h
Kindly supply the reported GI50 values for the records listed here.

Query :: # GI50 lookup, item C=C1C(=O)O[C@H]2[C@H]1CC/C(COC(=O)C(=O)c1c[nH]c3ccccc13)=C\CC[C@@]1(C)O[C@@H]21
Result :: 1.48 µM

Query :: Could you tell me which GI50 is on file for O=C(Nc1ccc(Cl)c([N+](=O)[O-])c1)Nc1nc2ccccc2s1 ?
Result :: 3.98 µM

Query :: Item COc1ccc(C(=O)/C=C/c2ccc(O)c(O)c2F)c(OC)c1 has what recorded GI50?
Result :: 4.95 µM

Query :: Return reported GI50; argument: O=C1c2ccccc2-c2c1c1ccccc1c(=O)n2CCCNCCCn1c2c(c3ccccc3c1=O)C(=O)c1ccccc1-2
Result :: 1.49 µM

Query :: Look at this compound and give its reported GI50. OCCN(CCO)N=Nc1ccc(-c2nc3ccccc3[nH]2)cc1
Result :: 12.5 µM

Query :: Given COc1cccc(-c2nn(-c3ccccc3)cc2-c2ccnc(NCCNS(=O)(=O)c3ccc(Cl)cc3)c2)c1 , state its recorded GI50.
Result :: 3.12 µM

Query :: May I ask what GI50 has been recorded for C=C1C(=O)O[C@@H]2C[C@@H]1CC[C@]1(C)O[C@H]1CC[C@@]1(C)O[C@@H]1CC[C@@]2(C)O ?
Result :: 28.7 µM

====

System: MCF7 breast
assayNotes: NCI tumour cell line growth inhibition, 48 h
Kindly state TGI for each of the entries shown.

Query :: I'd like to know its TGI. The compound in question is CCOC(=O)CN1CCNCCN(CC(=O)OCC)CCNCC1
Result :: > 100 µM

Query :: Give its TGI value. Item: CC(O)C1OC(O)C2OC(C)(C)OC12 (stereo not given)
Result :: > 100 µM

Query :: Query: TGI; subject: CCOC(=O)CC(=O)NC1CC2CCC1(C)C2(C)C (stereo not given)
Result :: > 100 µM

Query :: Looking for the measured TGI of Brc1cccc(/C=C/CN2CCN(CCOC(c3ccccc3)c3ccccc3)CC2)c1 , can you help?
Result :: 29.5 µM

Query :: Quick one: TGI of CCOC(=O)C1(C(=O)OCC)C[C@]23OCCC(=O)[C@H]2[C@H]2C(=O)OC(C)(C)O[C@]23C1 ?
Result :: > 100 µM

Query :: Record request: TGI value, item Cc1ccc(NC(c2ccccc2)c2ccc3cccnc3c2O)cc1 (stereo not given)
Result :: 16.2 µM

Query :: // TGI lookup, key: C=C1C(=O)O[C@@H]2C[C@@H]1CC[C@]1(C)O[C@H]1CC[C@@]1(C)O[C@@H]1CC[C@@]2(C)O
Result :: > 100 µM

Query :: Give the measured TGI of COc1ccc2c(c1)C(N)CC2=O (stereo not given) .
Result :: > 100 µM

Query :: Could you tell me which TGI is on file for CC(=O)/C(C=Nc1c(C)n(C)n(-c2ccccc2)c1=O)=C(/C)O ?
Result :: > 100 µM

Query :: Fill in: TGI of O=C(NN=C1CCN(Cc2ccccc2)CC1)C(O)(c1ccccc1)c1ccccc1 is ___
Result :: > 100 µM

====

Field: GI50. Provide a value for each of the molecules that follow.
Tested on: ACHN renal
assayNotes: NCI tumour cell line growth inhibition, 48 h

Query :: # lookup: GI50 of O=C(Nc1ccc(-c2nc3cc4ccccc4cc3[nH]2)cc1)c1cccc(Br)c1
Result :: 12.3 µM

Query :: Look up GI50 for this molecule: CNc1ccccc1C(=O)N/N=C/C=C/c1ccccc1
Result :: 11.8 µM

Query :: Which GI50 is listed for COc1ccc(C(=O)/C=C/c2ccc(O)c(O)c2F)c(OC)c1 ?
Result :: 5.49 µM

Query :: Request the reported GI50 associated with OCCN(CCO)N=Nc1ccc(-c2nc3ccccc3[nH]2)cc1
Result :: 35.6 µM

Query :: # query: GI50 of entry Cc1ccc(Nc2nc(NCCO)c3ccccc3n2)cc1C
Result :: 11 µM

Query :: Reported GI50 for O=C(CCN1CCN(c2cccc(Cl)c2)CC1)N1CCc2c([nH]c3ccccc23)C1c1cccnc1 (stereo unspecified) : what is it?
Result :: 6.34 µM
